system: Escherichia coli; experiment: Antibacterial activity against Escherichia coli clinical isolate assessed as inhibition of bacterial growth incubated for 24 hrs; assay type: functional
Note to self: use TRUE only for MIC readings below 1 µg/mL; a reading exactly at 1 µg/mL still gets FALSE.

Before answering, review these 3 worked examples.
NC1CCN(c2c(F)cc3c(=O)c(C(=O)O)cn(C4CC4)c3c2Cl)C1 (stereo not given)    TRUE
N#CCc1cc2c(cc1F)c(=O)c(C(=O)O)cn2CC1CCC1    FALSE
CCCCCn1cc(C(=O)O)c(=O)c2cc(F)c(CC#N)cc21    FALSE

# next compound below
Take the compound N#CCc1cc2c(cc1F)c(=O)c(C(=O)O)cn2Cc1cc(F)ccc1F and say whether its MIC is less than 1 µg/mL. FALSE

====

tested on: Erythrocyte; assay: Hemolytic activity in human Red blood cells assessed as concentration required for 5% hemolysis measured after 1.5 hrs by absorbance based assay; assay type: toxicity, cell-based
Observable: HC5

Consider the worked cases shown below.
CCn1cc(C(=O)O)c(=O)c2cc(F)c(CC#N)cc21    > 10000 µg/mL
N#CCc1cc2c(cc1F)c(=O)c(C(=O)O)cn2Cc1ccc(F)cc1F    60 µg/mL
C#CCn1cc(C(=O)O)c(=O)c2cc(F)c(CC#N)cc21    > 10000 µg/mL
CCCCCCCCn1cc(C(=O)O)c(=O)c2cc(F)c(CC#N)cc21    258 µg/mL
C[C@H]1COc2c(CC#N)c(F)cc3c(=O)c(C(=O)O)cn1c23    > 10000 µg/mL

Given the entry N#CCc1cc2c(cc1F)c(=O)c(C(=O)O)cn2Cc1ccccc1Cl , what HC5 was observed with Erythrocyte? 64 µg/mL

Try N#CCc1cc2c(cc1F)c(=O)c(C(=O)O)cn2C1CC1 next. > 10000 µg/mL

Note, next up: O=C(O)Cc1cc2c(cc1F)c(=O)c(C(=O)O)cn2C1CC1 > 10000 µg/mL

====

system: Escherichia coli; assay: Antibacterial activity against Escherichia coli clinical isolate assessed as inhibition of bacterial growth incubated for 24 hrs; format: functional
Observable: MIC (µg/mL)
Answer with a number only, understood to be in µg/mL.

The cases that follow already have their MIC on record.
C=CCn1cc(C(=O)O)c(=O)c2cc(F)c(CC#N)cc21    256
CCCCCCCCn1cc(C(=O)O)c(=O)c2cc(F)c(CC#N)cc21    0.5
O=C(O)Cc1cc2c(cc1F)c(=O)c(C(=O)O)cn2Cc1ccccn1    128

# query: MIC of entry N#CCc1cc2c(cc1F)c(=O)c(C(=O)O)cn2Cc1ccc(C(F)(F)F)cc1 256

Now the same for N#CCc1cc2c(cc1F)c(=O)c(C(=O)O)cn2C1CC1 2

Now the compound N#CCc1cc2c(cc1F)c(=O)c(C(=O)O)cn2Cc1cccc(Cl)c1 2

====

Attribute: IC50 at 24 h
test: Cytotoxicity against human normal Squamous epithelial cell (NOK) assessed as inhibition of cell growth measured after 24 hrs by MTT assay; type: toxicity, cell-based; conditions: normal squamous epithelial cells (NOK)
# unit: µg/mL | format: bare number

C[C@H]1COc2c(CC#N)c(F)cc3c(=O)c(C(=O)O)cn1c23    54

I have this molecule here, N#CCc1cc2c(cc1F)c(=O)c(C(=O)O)cn2Cc1ccccc1Cl , and I need its recorded IC50 at 24 h. 1.38

====

system: Staphylococcus aureus; assay: Antibacterial activity against methicillin resistant Staphylococcus aureus clinical isolate assessed as inhibition of bacterial growth incubated for 24 hrs; type: functional
Field: class. Source value: MIC. Ranges: lower (below 1 µg/mL), middle (1 µg/mL to below 100 µg/mL), upper (100 µg/mL or more)

CCCCCCCCn1cc(C(=O)O)c(=O)c2cc(F)c(CC(=O)O)cc21    middle
N#CCc1cc2c(cc1F)c(=O)c(C(=O)O)cn2Cc1c(F)cccc1F    middle

Please let me know in which category the item C[C@H]1COc2c(CC#N)c(F)cc3c(=O)c(C(=O)O)cn1c23 belongs. lower

Try this compound too: N#CCc1cc2c(cc1F)c(=O)c(C(=O)O)cn2Cc1ccc(Cl)cc1Cl upper

Can you check O=C(O)Cc1cc2c(cc1F)c(=O)c(C(=O)O)cn2Cc1ccccc1 next? middle

What about this compound? C=CCn1cc(C(=O)O)c(=O)c2cc(F)c(CC#N)cc21 lower

Continue with N#CCc1cc2c(cc1F)c(=O)c(C(=O)O)cn2Cc1cccc(Cl)c1 upper

Consider next the compound O=C(O)Cc1cc2c(cc1F)c(=O)c(C(=O)O)cn2C1CC1 in the same way. lower

====

tested on: Escherichia coli; assay: Antibacterial activity against Escherichia coli clinical isolate assessed as inhibition of bacterial growth incubated for 24 hrs; assay type: functional
# Lookup of reported MIC keyed by entry
API: value field is a number in µg/mL; no unit string.

If you can, please state the reported MIC value of CCCCCCn1cc(C(=O)O)c(=O)c2cc(F)c(CC#N)cc21 . 4

====

// values below are reported MIC
tested on: Staphylococcus aureus; assay: Antibacterial activity against Staphylococcus aureus ATCC 29213 assessed as inhibition of bacterial growth incubated for 24 hrs; format: functional
# unit: µg/mL | format: bare number

O=C(O)Cc1cc2c(cc1F)c(=O)c(C(=O)O)cn2Cc1ccccc1    64
N#CCc1cc2c(cc1F)c(=O)c(C(=O)O)cn2Cc1ccc(Cl)c(Cl)c1    2
N#CCc1cc2c(cc1F)c(=O)c(C(=O)O)cn2Cc1ccc([N+](=O)[O-])cc1    256
N#CCc1cc2c(cc1F)c(=O)c(C(=O)O)cn2CC1CCCC1    256
C#CCn1cc(C(=O)O)c(=O)c2cc(F)c(CC#N)cc21    1

# input compound: N#CCc1cc2c(cc1F)c(=O)c(C(=O)O)cn2Cc1ccc(C(F)(F)F)cc1 ; wanted: its MIC 4

Then what about the compound CCCCCCCCn1cc(C(=O)O)c(=O)c2cc(F)c(CC(=O)O)cc21 ? 4

Same read-out for N#CCc1cc2c(cc1F)c(=O)c(C(=O)O)cn2CC1CCC1 ? 256

Proceed to N#CCc1cc2c(cc1F)c(=O)c(C(=O)O)cn2Cc1ccccc1 0.5

Further, for Cn1cc(C(=O)O)c(=O)c2cc(F)c(CC#N)cc21 ? 8

Would you kindly repeat that for C[C@H]1COc2c(CC#N)c(F)cc3c(=O)c(C(=O)O)cn1c23 ? 0.5

====

test system: Staphylococcus aureus; test: Antibacterial activity against Staphylococcus aureus clinical isolate assessed as inhibition of bacterial growth incubated for 24 hrs; type: functional
Observable: log10(MIC) (log10 of the value in µg/mL)
Form field - Quantity: MIC; Unit: µg/mL; Scale: log10

Could you share which log10(MIC) value was measured for CCn1cc(C(=O)O)c(=O)c2cc(F)c(CC#N)cc21 ? 0.00

Another compound: O=C(O)Cc1cc2c(cc1F)c(=O)c(C(=O)O)cn2Cc1ccccn1 1.81

Queued: O=C(O)Cc1cc2c(cc1F)c(=O)c(C(=O)O)cn2Cc1ccccc1Cl 1.51

Item: N#CCc1cc2c(cc1F)c(=O)c(C(=O)O)cn2Cc1ccc([N+](=O)[O-])cc1 2.41

Here is the next compound: CC(C)=CCn1cc(C(=O)O)c(=O)c2cc(F)c(CC#N)cc21 2.41

What would you report for CCCCCn1cc(C(=O)O)c(=O)c2cc(F)c(CC#N)cc21 ? 2.41

Same read-out for CCn1cc(C(=O)O)c(=O)c2cc(F)c(N3CCNCC3)cc21 ? 0.90

Can you handle N#CCc1cc2c(cc1F)c(=O)c(C(=O)O)cn2CC(=O)N1CCCCC1 next? 2.11

Follow-up item: N#CCc1cc2c(cc1F)c(=O)c(C(=O)O)cn2Cc1ccc(Cl)cc1 2.41

# repeat for N#CCc1cc2c(cc1F)c(=O)c(C(=O)O)cn2Cc1cnc(Cl)s1 0.90

Another: N#CCc1cc2c(cc1F)c(=O)c(C(=O)O)cn2CC1CC1 2.41

====

system: Staphylococcus aureus; experiment: Antibacterial activity against Staphylococcus aureus clinical isolate assessed as inhibition of bacterial growth incubated for 24 hrs; type: functional
# note: exactly 60 µg/mL is not below, so it is false (0); use true (1) for MIC strictly under it

Answer whether the compound N#CCc1cc2c(cc1F)c(=O)c(C(=O)O)cn2CCN1CCOCC1 has MIC strictly less than 60 µg/mL true (1)

Input N#CCc1cc2c(cc1F)c(=O)c(C(=O)O)cn2CC1CCCCC1 false (0)

Ok, now N#CCc1cc2c(cc1F)c(=O)c(C(=O)O)cn2C1CC1 true (1)

Would you mind doing CCn1cc(C(=O)O)c(=O)c2cc(F)c(CC#N)c(F)c21 as well? true (1)

Same for N#CCc1cc2c(cc1F)c(=O)c(C(=O)O)cn2Cc1ccc(Cl)cc1Cl false (0)

Queued: CCCCCCCCn1cc(C(=O)O)c(=O)c2cc(F)c(CC(=O)O)cc21 true (1)
